system: KASUMI-1 cells; assay: MTT cell killing assay; assay type: cell-based, Human; details: KASUMI-1; daunorubicin-loaded aptamer immobilized on 3x3v1 net; read-out: IC90 (pM) 3x3v1
// classify: if (IC90 < 60000 pM) t else f

**Query** Consider the molecule CY30: CD123-binding aptamer, SEQ ID NO: 5 (nucleic acid, listed as DNA, chemistry not fully specified) TGCGTGTGTACTGTGTCTGGTCCCGTAGCTACTAGCGAACTCCCTGCCTCTTAGGGATTTGGGCGG . Is its IC90 strictly less than 60000 pM?
**Result** t

**Query** Consider the molecule ABWT050904: CD117-binding aptamer, SEQ ID NO: 2 (nucleic acid, listed as DNA, chemistry not fully specified) ATCCAGAGTGACGCAGCACGAGCCTTGTGTCGTTCGGAGTGCTGGTCCACGACTACTATTGGACACGGTGGCTTAGT . Is its IC90 strictly less than 60000 pM?
**Result** t

**Query** Consider the molecule ZW25: CD123-binding aptamer, SEQ ID NO: 4 (nucleic acid, listed as DNA, chemistry not fully specified) TGCGTGTGTAGTGTGTCTGGGCTACATCGATGAGCTGCCTAGGGTCCCTCTTAGGGATTTGGGCGGG . Is its IC90 strictly less than 60000 pM?
**Result** f

**Query** Consider the molecule #1: CD117-binding aptamer, SEQ ID NO: 3 (nucleic acid, listed as DNA, chemistry not fully specified) GAGGCATACCAGCTTATTCAAGGGGCCGGGGCAAGGGGGGGGTACCGTGGTAGGACATAGTAAGTGCAATCTGCGAA . Is its IC90 strictly less than 60000 pM?
**Result** f
